From: patent US20110144056A1

# target_entity: FAAH (Homo sapiens)
# Construct: The full length FAAH was subcloned into the mammalian expression vector, pcDEF.neo; expressed in transfected cells; cDNA from Origene
# assay_comment: FAAH enzyme assay, lysate of CHO cells expressing human FAAH
# Type: biochemical
# settings: cell lysate, read-out: FAAH Human Cell Lysate IC50
pIC50: −log10 of the molar value.
// label = y if pIC50 is not less than 7, otherwise n

| compound_structure_string | answer_label |
| --- | --- |
| OCc1cnc2cc(-c3nn(CCF)cc3Sc3ccc(Cl)cc3)ccc2c1 | y |
| FC(F)c1ccc2cc(-c3nn(C4CC4)cc3Sc3ccc(Cl)cc3)ccc2n1 | y |
| O=c1c2ccc(-c3nn(C4CC4)cc3Sc3ccc(Cl)cc3)cc2ncn1C1CC1 | n |
| CC(=O)N1CCc2cc(-c3nn(C(C)C)cc3Sc3ccc(Cl)cc3)ccc2C1 | y |
| Cc1ccc2cc(-c3n[nH]cc3Sc3ccc(Cl)cc3)ccc2n1 | n |
| O=c1[nH]cnc2cc(-c3nn(-c4ccc(F)cc4)cc3Sc3ccc(Cl)cc3)ccc12 | y |
| CC(=O)N1CCc2cc(-c3nn(C4CC4)cc3Sc3ccc(Cl)cc3)ccc2C1 | y |
| CN(C)C(=O)c1ccc2cc(-c3n[nH]cc3Sc3ccc(Cl)cn3)ccc2n1 | y |
| CCNC(=O)c1ccc2cc(-c3n[nH]cc3Sc3ccc(Cl)cc3)ccc2n1 | y |
| CCn1cc(-n2cc(Sc3ccc(Cl)cc3)c(-c3ccc4c(=O)n(-c5cnn(CC)c5)cnc4c3)n2)cn1 | y |
| CCNC(=O)c1ccc2cc(-c3nn(CCF)cc3Sc3ccc(Cl)cc3)ccc2n1 | y |
| CCN1CCc2cc(-c3nn(-c4ccccn4)cc3Sc3ccc(Cl)cc3)ccc2C1=O | y |
| CC(C)(O)c1ccc(-c2nn(-c3cnn(C4CC4)c3)cc2Sc2ccc(Cl)cc2)nn1 | n |

---

Property: pIC50; scope: individual compounds
# target_entity: FAAH (Homo sapiens, UniProt O00519)
# Construct: The full length FAAH was subcloned into the mammalian expression vector, pcDEF.neo; expressed in transfected cells; cDNA from Origene
# assay_comment: FAAH enzyme assay, lysate of CHO cells expressing human FAAH
# Assay type: biochemical
# settings: cell lysate, read-out: FAAH Human Cell Lysate IC50
pIC50: −log10 of the molar value.
measurement_name: pIC50

| compound | numeric_readout |
| --- | --- |
| FC(F)c1ccc2cc(-c3n[nH]cc3Sc3ccc(Cl)cn3)ccc2n1 [Example 332] | 6.57 |
| CCOC(=O)c1cnc2cc(-c3nn(CCF)cc3Sc3ccc(Cl)cc3)ccc2c1 [Example 371] | 8.40 |
| CCn1cc(-n2cc(Sc3ccc(Cl)cc3)c(-c3ccc4nc(C(F)F)ccc4c3)n2)cn1 [Example 382] | 8.31 |
| CCNC(=O)c1ccc2cc(-c3nn(C(C)C)cc3Sc3ccc(Cl)cc3)ccc2n1 [Example 368] | 7.62 |

---

Reported pIC50 values for a set of compounds
# target_entity: FAAH (Rattus norvegicus)
# Construct: cDNA by RT-PCR from brain cDNA (BD Biosciences)
# Sequence (P97612 whole entry): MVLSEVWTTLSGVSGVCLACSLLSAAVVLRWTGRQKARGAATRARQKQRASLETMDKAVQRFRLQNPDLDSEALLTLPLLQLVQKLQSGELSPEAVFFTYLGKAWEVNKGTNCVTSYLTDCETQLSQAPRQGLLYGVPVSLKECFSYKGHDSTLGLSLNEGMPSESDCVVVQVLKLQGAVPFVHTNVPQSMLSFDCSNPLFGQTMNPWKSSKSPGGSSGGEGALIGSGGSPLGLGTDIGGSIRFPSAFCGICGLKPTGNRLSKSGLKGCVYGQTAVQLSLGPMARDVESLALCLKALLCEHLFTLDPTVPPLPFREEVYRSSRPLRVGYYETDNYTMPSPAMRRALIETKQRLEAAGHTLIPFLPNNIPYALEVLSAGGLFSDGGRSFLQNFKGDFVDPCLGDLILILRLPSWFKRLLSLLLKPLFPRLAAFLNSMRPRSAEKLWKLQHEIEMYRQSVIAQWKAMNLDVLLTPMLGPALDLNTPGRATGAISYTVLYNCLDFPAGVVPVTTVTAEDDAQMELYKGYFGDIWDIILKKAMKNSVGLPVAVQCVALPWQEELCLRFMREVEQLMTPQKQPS
# assay_comment: FAAH whole cell assay, CHO cells expressing rat FAAH
pIC50: −log10 of the molar value.

| compound | pIC50 |
| --- | --- |
| CS(=O)(=O)c1ccc(-c2c(Sc3ccc(Cl)cc3)cnn2-c2ccc(F)cc2)cc1 [Ex 25] | 6.53 |
| CC(C)(O)c1cnc(-c2nn(-c3ccc(F)cn3)cc2Sc2ccc(Cl)cc2)cn1 [Example 229] | 7.74 |
| O=C(NCCCl)c1ccc(-c2nn(-c3ccccc3)cc2Sc2ccc(Cl)cc2)cc1 [Example 121] | 7.28 |
| Clc1ccc(Sc2cn(-c3ccccc3)nc2-c2ccc(-c3c[nH]nn3)cc2)cc1 [Example 88] | 6.80 |

---

Catalogue of compounds with associated pIC50
# target_entity: FAAH (Homo sapiens)
# Construct: The full length FAAH was subcloned into the mammalian expression vector, pcDEF.neo; expressed in transfected cells; cDNA from Origene
# assay_comment: FAAH enzyme assay, lysate of CHO cells expressing human FAAH
# Type: biochemical
# settings: cell lysate, read-out: FAAH Human Cell Lysate IC50
# From the text: To assist in assay development stable cell lines for human, murine and rat full length FAAH were developed. Human FAAH cDNA (Accession No: NM_001441.1) was purchased from Origene (Rockville, Md.). The full length FAAH was subcloned into the mammalian expression vector, pcDEF.neo, using XbaI and […] restriction sites and used for stable cell line generation. CHO cells expressing FAAH were used to prepare either crude cell lysate or microsome fractions. […]
pIC50: −log10 of the molar value.

| compound_structure_string | pIC50 |
| --- | --- |
| CCn1cc(-n2cc(Sc3ccc(Cl)cc3)c(-c3ccc4c(c3)CCNC4=O)n2)cn1 | 7.80 |
| O=C1NCCc2cc(-c3n[nH]cc3Sc3ccc(Cl)cc3)ccc21 | 7.14 |
| CCn1cc(-n2cc(Sc3ccc(Cl)cc3)c(-c3ccc4c(=O)[nH]cnc4c3)n2)cn1 | 7.92 |
| Fc1ccc(-n2cc(Sc3ccc(Cl)cc3)c(-c3ccc4nc(C(F)F)ccc4c3)n2)cc1 | 7.62 |
| CCNC(=O)c1ccc2cc(-c3nn(CC4CC4)cc3Sc3ccc(Cl)cc3)ccc2n1 | 8.80 |
| OCc1ccc2cc(-c3n[nH]cc3Sc3ccc(Cl)cc3)ccc2n1 | 7.96 |
| NC(=O)c1ccc2cc(-c3nn(C4CC4)cc3Sc3ccc(Cl)cn3)ccc2n1 | 7.83 |
| CN(C)C(=O)c1ccc2cc(-c3nn(C4CC4)cc3Sc3ccc(Cl)cn3)ccc2n1 | 7.11 |

---

# target_entity: FAAH (Homo sapiens)
# Construct: The full length FAAH was subcloned into the mammalian expression vector, pcDEF.neo; expressed in transfected cells; cDNA from Origene
# Sequence (O00519 1-579): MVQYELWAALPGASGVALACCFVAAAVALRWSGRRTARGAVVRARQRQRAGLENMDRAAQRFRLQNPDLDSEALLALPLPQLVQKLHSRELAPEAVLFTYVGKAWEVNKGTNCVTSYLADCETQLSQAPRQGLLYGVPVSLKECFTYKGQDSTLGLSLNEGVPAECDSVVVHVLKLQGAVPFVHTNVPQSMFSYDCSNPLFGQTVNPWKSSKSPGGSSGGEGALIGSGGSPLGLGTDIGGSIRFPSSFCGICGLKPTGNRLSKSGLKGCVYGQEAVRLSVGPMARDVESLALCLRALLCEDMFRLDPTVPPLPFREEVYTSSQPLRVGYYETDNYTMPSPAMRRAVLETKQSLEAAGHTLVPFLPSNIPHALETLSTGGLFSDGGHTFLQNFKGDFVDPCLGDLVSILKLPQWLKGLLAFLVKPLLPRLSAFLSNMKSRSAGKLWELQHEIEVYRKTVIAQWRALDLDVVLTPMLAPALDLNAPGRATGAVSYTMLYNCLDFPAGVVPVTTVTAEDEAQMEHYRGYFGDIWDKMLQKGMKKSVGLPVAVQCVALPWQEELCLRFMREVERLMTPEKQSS
# assay_comment: FAAH whole cell assay, CHO cells expressing human FAAH
# Type: cell-based
# settings: read-out: Human whole cell

| compound_structure_string | target_entity | IC50 [nM] |
| --- | --- | --- |
| CS(=O)(=O)c1ccc(-c2nn(-c3ccc(F)cc3)cc2Sc2ccc(Cl)cc2)cc1 | FAAH (Homo sapiens) | 36 |
| CS(=O)(=O)c1ccc(-c2c(Sc3ccc(Cl)cc3)cnn2-c2ccc(F)cc2)cc1 | FAAH (Homo sapiens) | 235 |
| O=C(NCCCl)c1ccc(-c2nn(-c3ccccc3)cc2Sc2ccc(Cl)cc2)cc1 | FAAH (Homo sapiens) | 124 |
| CS(=O)(=O)c1ccc(-c2nn(-c3ccncc3)cc2Sc2ccc(Cl)cc2)cc1 | FAAH (Homo sapiens) | 48 |
| [O-][n+]1cccc(-n2cc(Sc3ccc(Cl)cc3)c(-c3ccc(-c4ncon4)cc3)n2)c1 | FAAH (Homo sapiens) | 590 |
| Clc1ccc(Sc2cn(-c3ccccc3)nc2-c2ccc(-c3c[nH]nn3)cc2)cc1 | FAAH (Homo sapiens) | 395 |
| CS(=O)(=O)c1ccc(-c2nn(C3CCCC3)cc2Sc2ccc(Cl)cc2)cc1 | FAAH (Homo sapiens) | 141 |
| CC(C)(O)c1cnc(-c2nn(-c3ccc(F)cn3)cc2Sc2ccc(Cl)cc2)cn1 | FAAH (Homo sapiens) | 66 |

---

# target_entity: FAAH (Homo sapiens)
# Construct: The full length FAAH was subcloned into the mammalian expression vector, pcDEF.neo; expressed in transfected cells; cDNA from Origene
# Sequence (O00519 1-579): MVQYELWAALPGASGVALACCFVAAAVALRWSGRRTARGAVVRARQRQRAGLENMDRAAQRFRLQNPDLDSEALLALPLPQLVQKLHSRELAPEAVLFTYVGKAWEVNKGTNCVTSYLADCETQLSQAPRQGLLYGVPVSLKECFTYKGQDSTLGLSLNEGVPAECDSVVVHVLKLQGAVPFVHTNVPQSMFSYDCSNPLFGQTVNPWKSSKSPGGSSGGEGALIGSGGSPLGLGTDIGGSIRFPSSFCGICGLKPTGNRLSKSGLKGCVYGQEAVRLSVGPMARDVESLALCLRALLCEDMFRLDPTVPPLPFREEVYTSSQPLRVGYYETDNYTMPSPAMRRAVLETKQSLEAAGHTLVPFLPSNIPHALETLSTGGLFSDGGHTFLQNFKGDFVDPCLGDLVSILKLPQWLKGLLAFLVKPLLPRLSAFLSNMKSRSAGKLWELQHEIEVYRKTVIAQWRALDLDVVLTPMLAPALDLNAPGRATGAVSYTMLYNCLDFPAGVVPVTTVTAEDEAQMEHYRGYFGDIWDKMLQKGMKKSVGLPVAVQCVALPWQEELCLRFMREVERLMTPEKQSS
# assay_comment: FAAH whole cell assay, CHO cells expressing human FAAH
# Assay type: cell-based
# settings: read-out: FAAH Human Whole Cell IC50
pIC50: −log10 of the molar value.
Where pIC50 equals or exceeds 8, the correct label is 1.0; where it does not, the label is 0.0.

| compound | answer_label |
| --- | --- |
| N#Cc1ccc2cc(-c3c(Sc4ccc(Cl)cc4)cnn3C3CCCCO3)ccc2n1 (centres unmarked) [Example 405] | 0.0 |
| CC(C)(O)c1ccc2cc(-c3c(Sc4ccc(Cl)cc4)cnn3C3CCCCO3)ccc2n1 (centres unmarked) [Example 403] | 0.0 |
| CC(=O)N1CCc2cc(-c3c(Sc4ccc(Cl)cc4)cnn3C3CCCCO3)ccc2C1 (centres unmarked) [Example 404] | 0.0 |
| CCOC(=O)c1cnc2cc(-c3c(Sc4ccc(Cl)cc4)cnn3C3CCCCO3)ccc2c1 (centres unmarked) [Example 407] | 1.0 |
